- target-under-test: human IL-13 variant (R130Q) (human, UniProt P35225 35-146)
- Sequence (P35225 35-146 limits assumed, stated change not applied): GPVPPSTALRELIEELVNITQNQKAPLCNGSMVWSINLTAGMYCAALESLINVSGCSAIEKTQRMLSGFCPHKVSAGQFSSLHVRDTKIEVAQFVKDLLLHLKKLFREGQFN
- assay-details: cell-based or functional assay
Each record here notes measured Average IC50, IL-13-induced TARC production by A-549 cells.
measurement-label: Average IC50, IL-13-induced TARC production by A-549 cells (nM)

binder | units-text | measured-number
5D3 (antibody, V domains shown) VH: QVQLKESGPGLVAPSQSLSITCTVSGFSLTGYNINWVRQPPGKGLEWLGLIWGDGNTAFNSALKSRLSISKDNSKSQVFLKLNSLQTDDTARYYCARDGYYPYAIKYWGQGTSVTVSS VL: NIVLTQSPASLAVSLGQRATISCRASETVDSYGNSFMHWYQQKPGQPPKLLIYLASNLESGVPARFSGSGSRTDFTLTIDPVEADDAATYYCQQNNEDPRTFGGGTKLEIKR | nM | 0.29
3E5 (antibody, V domains shown) VH: QVQLKESGPGLVAPSQSLSITCTVSGFSLTGSSINWVRQPPGKGLEWLGMIWGDGRIDYNSVLKSRLSISKDSSKSQVFLKMNSLQADDTARYYCARDGYYPYAMVYWGQGTSVTVSS VL: NIVLTQSPASLAVSLGQRATIFCRASESVDSYGNSFMHWYQQKSGQPPKLLIYLASNLESGVPARFSGSGSRTDFTLTIDPVEADDAATFYCQQNNENPRTFGGGTKLEIKR | nM | 0.3
5F1 (antibody, V domains shown) VH: QVQLQQSGAELARPGTSVKLSCKASGYTFTTYGISWVKQRTGQGLEWIGEIYPGSYNTYYNEKFRGKATLTADKSSSTAYMQLSSLTSEDSAVYFCSRWRTSYFSDYGYFDYWGQGTTLTVSS VL: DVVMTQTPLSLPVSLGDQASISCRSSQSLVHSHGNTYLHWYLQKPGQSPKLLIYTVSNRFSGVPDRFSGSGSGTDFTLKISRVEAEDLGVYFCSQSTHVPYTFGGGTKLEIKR | nM | 0.09
22D10 (antibody, V domains shown) VH: QVQLQQSGDDLVKPGASVKLSCKASGYTFTSYWINWIKQRPGQGLEWIGHIAPGSGETYDNEMFKDKAKLTVDTSSSTAYIHLSSLSSEDSAVYFCARGSFTFFYAMDYWGQGTSVTVSS VL: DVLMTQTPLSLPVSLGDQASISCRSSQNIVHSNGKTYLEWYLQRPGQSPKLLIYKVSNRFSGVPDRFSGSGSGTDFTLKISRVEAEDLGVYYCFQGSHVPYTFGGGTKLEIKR | nM | 0.54
25C8 (antibody, V domains shown) VH: QVQLQQPGAELVRPGASVQLSCKASGYTFTSSWIHWVNQRPGQGLEWIGMIHPSDSETRLNQKFKDKATLTVDKSSSTAYMQLSSPTSEDSAVYYCASTATDFDYWGQGTTLTVSS VL: DVVLTQTPLSLPVNIGDQASISCKSTKSLLNSDGFTYLDWYLQKPGQSPQLLIYLVSNRFSGAPDRFSGSGSGTDFTLKISRVEAEDLGVYYCFQHNYLPLTFGAGTNLELKR | nM | 0.26
